assay procedure: in vitro
experimental conditions: rat, hepatocytes
We begin with a simple list: items and their reported hepatocyte CLint at 1.5 h.
Return type: number; implicit unit µL/min/1e6 cells.

Before answering, review these 2 worked examples.
| chemical smiles | unit descriptor | quantitative readout |
| --- | --- | --- |
| O=c1cc(-c2cccc3c2Sc2ccccc2S3)oc(N2CCOCC2)c1 | µL/min/1e6 cells | 230 |
| NC(=O)c1cnc2ccc(-c3cccnc3)cc2c1NC1CCOCC1 | µL/min/1e6 cells | 8.5 |

Recorded result, NC(=O)c1cnc2c(Cl)cc(-c3cccnc3)cc2c1NC1CCOCC1 , hepatocyte CLint at 1.5 h: 7.3

Entry under test: C[C@H](Nc1c(C(N)=O)cnc2ccc(-c3cccnc3)cc12)c1ccn(C)n1 . Its hepatocyte CLint at 1.5 h was 31

For record C[C@@H](Nc1c(C(N)=O)cnc2ccc(C#N)cc12)c1ccc(Cl)cc1 the listed hepatocyte CLint at 1.5 h is 41

Summary for this compound, NC(=O)c1cnc2ccc(-c3cccnc3)cc2c1NCC1CCCCC1 : hepatocyte CLint at 1.5 h is 130

Lab note: measured hepatocyte CLint at 1.5 h of C[C@H](Nc1c(C(N)=O)cnc2ccc(-c3cccnc3)cc12)C1CCOCC1 was 38

The compound identified as CCC(CC)CNc1c(C(N)=O)cnc2ccc(C#N)cc12 registered its hepatocyte CLint at 1.5 h at 74

hepatocyte CLint at 1.5 h measured on COCc1ccc(-c2ccc3ncc(C(N)=O)c(N[C@@H](C)c4ccn(C)n4)c3c2)c(F)n1 = 6.4

Short answer for CCC(CC)CNc1c(C(N)=O)c(C)nc2ccc(-c3cccnc3)cc12 : hepatocyte CLint at 1.5 h was 43

Briefly, hepatocyte CLint at 1.5 h measured for CCC(CC)COc1c(C(N)=O)cnc2ccc(-c3cccnc3)cc12 : 260

What the record says about NC(=O)c1cnc2ccc(-c3cccnc3)cc2c1NC1CCCCC1 : hepatocyte CLint at 1.5 h is 70

Notebook: CCC(CC)CNc1c(C(N)=O)cnc2ccc(-c3ccnnc3)cc12 , hepatocyte CLint at 1.5 h read as 95

Consider NC(=O)c1cnc2ccc(-c3cccnc3)c(F)c2c1NC1CCOCC1 . Its measured hepatocyte CLint at 1.5 h is 11

* * *

Quick record: pIC50, Voltage-gated inwardly rectifying potassium channel KCNH2 (Homo sapiens).
A value of pIC50 is the negative decimal logarithm of a concentration given in moles per litre.

| chemical smiles | value kind | quantitative readout |
| --- | --- | --- |
| C[C@H](Nc1c(C(N)=O)cnc2ccc(-c3cccnc3)cc12)C1CCOCC1 | pIC50 | 5.44 |
| CCC(CC)CNc1c(C(N)=O)cnc2ccc(C#N)cc12 | pIC50 | 5.64 |
| NC(=O)c1cnc2ccc(-c3cccnc3)cc2c1NC1CCCC1 | pIC50 | 6.24 |
| CCC(CC)CNc1c(C(N)=O)cnc2ccc(-c3ccc(CS(C)(=O)=O)nc3)cc12 | pIC50 | 5.72 |
| C[C@@H](Nc1c(C(N)=O)cnc2ccc(-c3cccnc3)cc12)C1CCOCC1 | pIC50 | 5.37 |
| NC(=O)c1cnc2ccc(-c3cccnc3)cc2c1NCC1CCCCC1 | pIC50 | 6.08 |
| NC(=O)c1cnc2ccc(-c3cccnc3)c(F)c2c1NC1CCOCC1 | pIC50 | 4.89 |
| CCC(CC)CNc1c(C(N)=O)cnc2ccc(-c3ccc(CO)nc3)cc12 | pIC50 | 5.51 |
| NC(=O)c1cnc2ccc(-c3cccnc3)cc2c1SC1CCCC1 | pIC50 | 5.29 |
| CCC(CC)CNc1c(C(N)=O)cnc2ccc(-c3ccc(CS(C)(=O)=O)cc3)cc12 | pIC50 | 5.68 |

Lab note: measured pIC50 of CCC(CC)CNc1c(C(N)=O)cnc2ccc(-c3ccc(COC)cc3)cc12 was 4.74

CCC(CC)CNc1c(C(N)=O)cnc2ccc(-c3ccc(COC)nc3)cc12 has a reported pIC50 of 5.60

For reference, reported pIC50 for NC(=O)c1cnc2cc(Cl)c(-c3cccnc3)cc2c1NC1CCOCC1 stands at 5.92

Entry C[C@H](Nc1c(C(N)=O)cnc2ccc(-c3cccnc3)cc12)c1ccn(C)n1 , pIC50 reported as 4.96

# compound CCC(CC)COc1c(C(N)=O)cnc2ccc(-c3cccnc3)cc12 ; its pIC50 = 5.68

// sample CCC(CC)CNc1c(C(N)=O)c(C)nc2ccc(-c3cccnc3)cc12 , its pIC50 was 6.17

Consider C[C@@H](Nc1c(C(N)=O)cnc2ccc(-c3cccnc3)cc12)c1ccn(C)n1 . Its measured pIC50 is 5.55

* * *

test system: Phosphatidylinositol 4,5-bisphosphate 3-kinase catalytic subunit beta isoform (Homo sapiens, UniProt P42338)
Sequence (P42338 whole entry, canonical isoform): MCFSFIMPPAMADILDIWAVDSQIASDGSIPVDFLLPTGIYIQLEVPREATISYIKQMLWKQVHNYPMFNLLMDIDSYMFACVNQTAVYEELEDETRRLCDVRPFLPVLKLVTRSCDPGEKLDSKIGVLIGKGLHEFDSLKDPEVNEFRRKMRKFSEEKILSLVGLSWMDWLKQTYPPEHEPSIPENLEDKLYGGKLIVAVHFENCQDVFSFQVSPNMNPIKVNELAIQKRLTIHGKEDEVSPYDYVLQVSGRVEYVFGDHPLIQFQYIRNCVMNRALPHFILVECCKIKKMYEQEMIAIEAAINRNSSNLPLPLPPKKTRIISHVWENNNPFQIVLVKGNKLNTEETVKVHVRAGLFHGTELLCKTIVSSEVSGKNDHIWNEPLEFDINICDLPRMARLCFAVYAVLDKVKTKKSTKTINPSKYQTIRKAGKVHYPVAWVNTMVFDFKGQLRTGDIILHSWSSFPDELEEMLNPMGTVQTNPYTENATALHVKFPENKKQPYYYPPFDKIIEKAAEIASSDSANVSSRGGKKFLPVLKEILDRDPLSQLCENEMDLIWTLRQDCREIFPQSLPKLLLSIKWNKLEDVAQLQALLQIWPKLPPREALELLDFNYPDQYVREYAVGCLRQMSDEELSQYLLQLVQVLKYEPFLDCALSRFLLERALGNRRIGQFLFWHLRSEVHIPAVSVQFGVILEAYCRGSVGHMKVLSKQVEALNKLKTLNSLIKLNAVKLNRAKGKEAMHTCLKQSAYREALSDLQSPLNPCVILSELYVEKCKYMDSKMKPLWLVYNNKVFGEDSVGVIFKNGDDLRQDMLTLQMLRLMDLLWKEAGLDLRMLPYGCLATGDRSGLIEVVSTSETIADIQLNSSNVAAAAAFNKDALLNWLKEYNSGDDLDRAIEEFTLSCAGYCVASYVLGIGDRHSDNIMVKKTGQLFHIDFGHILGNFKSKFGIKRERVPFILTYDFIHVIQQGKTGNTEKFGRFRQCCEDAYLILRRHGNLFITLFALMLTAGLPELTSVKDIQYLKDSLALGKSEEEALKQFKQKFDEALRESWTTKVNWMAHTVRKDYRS
assay procedure: Inhibition of human recombinant PI3Kbeta using PIP2/ATP as substrate incubated for 20 mins followed by substrate addition by Kinase Glo reagent based luminescence assay
value kind: pIC50
# log scale: pIC50 equals minus log10 of the concentration in mol/L

| chemical smiles | pIC50 |
| --- | --- |
| C[C@@H](Nc1c(C(N)=O)cnc2ccc(-c3cccnc3)cc12)c1ccc(Cl)cc1 | 7.68 |

The value of pIC50 measured for the compound O=c1cc(-c2cccc3c2Sc2ccccc2S3)oc(N2CCOCC2)c1 turned out to be 6.88

// pIC50 lookup, compound = C[C@@H](Nc1c(C(N)=O)cnc2ccc(C#N)cc12)c1ccc(Cl)cc1 , result: 6.86

Entry COCc1ccc(-c2cc3c(N[C@@H](C)c4ccn(C)n4)c(C(N)=O)cnc3cc2F)cn1 — recorded pIC50 = 4.89

Reported pIC50 ( CCC(CC)CNc1c(C(N)=O)cnc2ccc(C#N)cc12 ) = 5.24

Short answer for COc1cc2ncnc(-n3nc(-c4ccccn4)nc3N)c2cc1OC : pIC50 was 5.26

// sample C[C@@H]1CN(CC(=O)Nc2ccc3c(c2)Cc2cccc(-c4cc(=O)cc(N5CCOCC5)o4)c2S3)C[C@H](C)O1 , its pIC50 was 5.67

* * *

test system: Serine/threonine-protein kinase ATR (Homo sapiens)
Sequence (Q13535 whole entry): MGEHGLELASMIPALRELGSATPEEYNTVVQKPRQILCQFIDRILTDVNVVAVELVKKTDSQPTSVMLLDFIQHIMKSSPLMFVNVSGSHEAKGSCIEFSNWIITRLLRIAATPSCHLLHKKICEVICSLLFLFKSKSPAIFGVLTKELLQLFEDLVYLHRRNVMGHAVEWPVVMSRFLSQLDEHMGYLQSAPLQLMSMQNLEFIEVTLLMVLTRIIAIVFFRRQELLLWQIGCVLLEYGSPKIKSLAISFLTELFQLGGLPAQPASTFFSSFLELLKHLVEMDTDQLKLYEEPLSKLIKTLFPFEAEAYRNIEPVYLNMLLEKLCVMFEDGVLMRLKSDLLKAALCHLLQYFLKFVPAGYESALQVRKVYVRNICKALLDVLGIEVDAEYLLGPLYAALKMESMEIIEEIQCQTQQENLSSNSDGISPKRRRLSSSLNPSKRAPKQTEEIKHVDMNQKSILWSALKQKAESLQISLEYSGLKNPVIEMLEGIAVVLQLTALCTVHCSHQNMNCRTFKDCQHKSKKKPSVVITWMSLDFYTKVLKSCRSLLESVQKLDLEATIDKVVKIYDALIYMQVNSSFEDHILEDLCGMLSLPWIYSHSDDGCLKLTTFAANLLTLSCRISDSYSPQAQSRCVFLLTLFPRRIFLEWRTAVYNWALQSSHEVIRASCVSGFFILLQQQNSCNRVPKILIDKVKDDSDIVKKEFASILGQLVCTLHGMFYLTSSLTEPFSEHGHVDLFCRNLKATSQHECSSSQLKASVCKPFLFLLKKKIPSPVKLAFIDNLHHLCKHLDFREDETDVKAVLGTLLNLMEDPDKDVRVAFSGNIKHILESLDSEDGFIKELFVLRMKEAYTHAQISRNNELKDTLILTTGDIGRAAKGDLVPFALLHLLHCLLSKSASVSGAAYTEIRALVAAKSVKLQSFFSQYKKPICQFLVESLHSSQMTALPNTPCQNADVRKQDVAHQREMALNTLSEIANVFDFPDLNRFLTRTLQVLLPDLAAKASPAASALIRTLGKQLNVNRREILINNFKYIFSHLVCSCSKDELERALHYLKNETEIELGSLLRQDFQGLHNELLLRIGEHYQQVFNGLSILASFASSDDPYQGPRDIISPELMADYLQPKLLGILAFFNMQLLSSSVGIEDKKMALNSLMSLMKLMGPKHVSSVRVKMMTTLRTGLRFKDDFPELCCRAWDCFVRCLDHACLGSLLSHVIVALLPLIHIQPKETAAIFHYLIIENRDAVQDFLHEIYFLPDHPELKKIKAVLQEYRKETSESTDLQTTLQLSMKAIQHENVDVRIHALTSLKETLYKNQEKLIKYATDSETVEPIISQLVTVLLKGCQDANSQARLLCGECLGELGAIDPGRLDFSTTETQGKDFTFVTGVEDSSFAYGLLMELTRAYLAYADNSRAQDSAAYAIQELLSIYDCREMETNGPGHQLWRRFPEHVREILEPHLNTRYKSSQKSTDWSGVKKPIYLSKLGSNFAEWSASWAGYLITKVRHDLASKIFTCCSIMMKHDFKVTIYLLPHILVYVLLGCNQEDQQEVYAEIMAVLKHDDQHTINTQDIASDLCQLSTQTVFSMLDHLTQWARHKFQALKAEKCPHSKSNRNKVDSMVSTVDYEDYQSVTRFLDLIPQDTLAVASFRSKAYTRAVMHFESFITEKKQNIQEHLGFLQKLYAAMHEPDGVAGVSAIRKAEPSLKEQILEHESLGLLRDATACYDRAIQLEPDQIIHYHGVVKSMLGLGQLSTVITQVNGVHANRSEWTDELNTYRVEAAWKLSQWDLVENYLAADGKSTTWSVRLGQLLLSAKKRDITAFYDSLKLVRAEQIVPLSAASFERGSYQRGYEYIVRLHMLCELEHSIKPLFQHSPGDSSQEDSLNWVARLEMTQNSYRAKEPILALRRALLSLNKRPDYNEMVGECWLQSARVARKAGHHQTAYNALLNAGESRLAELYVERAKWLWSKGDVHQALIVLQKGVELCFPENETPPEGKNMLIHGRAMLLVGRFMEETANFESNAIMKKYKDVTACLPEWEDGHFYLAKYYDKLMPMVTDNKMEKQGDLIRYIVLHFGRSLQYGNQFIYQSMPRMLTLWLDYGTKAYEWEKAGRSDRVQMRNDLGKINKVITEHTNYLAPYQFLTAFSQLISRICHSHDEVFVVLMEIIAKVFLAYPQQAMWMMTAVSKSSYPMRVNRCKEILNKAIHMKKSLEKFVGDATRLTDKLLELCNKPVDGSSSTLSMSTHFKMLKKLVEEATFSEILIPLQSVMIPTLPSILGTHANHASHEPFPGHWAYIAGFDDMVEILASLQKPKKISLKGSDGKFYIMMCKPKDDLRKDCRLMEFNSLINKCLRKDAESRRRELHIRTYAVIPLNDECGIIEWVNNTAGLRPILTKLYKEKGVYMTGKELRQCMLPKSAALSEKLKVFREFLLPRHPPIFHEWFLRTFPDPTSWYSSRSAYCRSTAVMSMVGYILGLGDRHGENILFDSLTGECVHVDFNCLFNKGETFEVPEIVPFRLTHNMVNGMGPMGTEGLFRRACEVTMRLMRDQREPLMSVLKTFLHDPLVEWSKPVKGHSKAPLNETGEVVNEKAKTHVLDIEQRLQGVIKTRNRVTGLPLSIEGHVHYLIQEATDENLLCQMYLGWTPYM
assay procedure: Inhibition of ATR in human HT-29 cells assessed as reduction in Chk1 phosphorylation at Ser-345 residue after 60 mins in presence of 4-nitroquinoline-1-oxide by Hoechst 33258 staining based plate reader analysis
The compounds listed here are annotated with their IC50.

Example entries begin here.
| chemical smiles | IC50 |
| --- | --- |
| CCC(CC)CNc1c(C(N)=O)cnc2ccc(-c3ccncc3)cc12 | 0.73 µM |
| CCC(CC)CNc1c(C(N)=O)cnc2ccc(-c3cncnc3)cc12 | > 18 µM |
| NC(=O)c1cnc2ccc(-c3cccnc3)cc2c1NCC1CCOCC1 | 11 µM |
| O=c1cc(-c2cccc3c2Sc2ccccc2S3)oc(N2CCOCC2)c1 | > 30 µM |
| NC(=O)c1cnc2c(F)cc(-c3cccnc3)cc2c1NC1CCOCC1 | > 30 µM |

Now turn to the next compound.
// recorded IC50 for NC(=O)c1cnc2ccc(-c3cccnc3)c(F)c2c1NC1CCOCC1 : > 30 µM

* * *

test system: Serine/threonine-protein kinase ATR (Homo sapiens)
assay procedure: Inhibition of ATR in human HT-29 cells assessed as reduction in Chk1 phosphorylation at Ser-345 residue after 60 mins in presence of 4-nitroquinoline-1-oxide by Hoechst 33258 staining based plate reader analysis
In this section, each of the compounds is paired with its reported IC50.

Example entries and their recorded answers appear below.
| chemical smiles | result |
| --- | --- |
| COCc1ccc(-c2ccc3ncc(C(N)=O)c(N[C@@H](C)c4ccn(C)n4)c3c2)c(F)n1 | > 25 µM |
| CCC(CC)CNc1c(C(N)=O)cnc2ccc(-c3cccnn3)cc12 | > 15 µM |
| C[C@@H](Nc1c(C(=O)O)cnc2ccc(-c3cccnc3)cc12)c1ccc(Cl)cc1 | > 30 µM |
| C[C@@H](Nc1ccnc2ccc(-c3cccnc3)cc12)c1ccc(Cl)cc1 | > 30 µM |
| CCC(CC)CNc1c(C(N)=O)cnc2ccc(-c3cccnc3)cc12 | > 11 µM |
| CNC(=O)c1cnc2ccc(-c3cccnc3)cc2c1N[C@H](C)c1ccc(Cl)cc1 | > 30 µM |
| COc1cc2ncnc(-n3nc(-c4ccccn4)nc3N)c2cc1OC | > 30 µM |
| CCC(CC)CNc1c(C(N)=O)cnc2ccc(-c3cnn(C)c3)cc12 | 7.1 µM |
| C[C@@H](Nc1c(C(N)=O)cnc2ccc(-c3cccnc3)cc12)c1ccn(C)n1 | > 18 µM |
| CCC(CC)COc1c(C(N)=O)cnc2ccc(-c3cccnc3)cc12 | > 30 µM |

Kindly note the recorded IC50 for NC(=O)c1cnc2ccc(-c3cccnc3)cc2c1NCC1CCCCC1 , which is 3 µM

Item: C[C@@H](Nc1c(C(N)=O)cnc2ccc(-c3cccnc3)cc12)c1ccc(Cl)cc1 | IC50: 1.9 µM

* * *

test system: DNA-dependent protein kinase catalytic subunit (Homo sapiens)
assay procedure: Inhibition of DNAPK phosphorylation at Ser-2056 residue in human HT-29 cells
Type: cell-based
value kind: IC50

Known value: DNA-dependent protein kinase catalytic subunit (Homo sapiens) IC50 of the compound COCc1ccc(-c2cc3c(N[C@@H](C)c4ccn(C)n4)c(C(N)=O)cnc3cc2F)cn1 equals > 30 µM
